target: T1, recombinant human CSF-1R (form not stated) (human, UniProt P07333 20-512, limits assumed); test: BIAcore, humanisation stage, crude cell supernatant
T1 construct: for the ELISA no species is stated; also called recombinant CSF-1R; recombinant CSF-1R protein
T1 sequence (P07333 20-512 limits assumed): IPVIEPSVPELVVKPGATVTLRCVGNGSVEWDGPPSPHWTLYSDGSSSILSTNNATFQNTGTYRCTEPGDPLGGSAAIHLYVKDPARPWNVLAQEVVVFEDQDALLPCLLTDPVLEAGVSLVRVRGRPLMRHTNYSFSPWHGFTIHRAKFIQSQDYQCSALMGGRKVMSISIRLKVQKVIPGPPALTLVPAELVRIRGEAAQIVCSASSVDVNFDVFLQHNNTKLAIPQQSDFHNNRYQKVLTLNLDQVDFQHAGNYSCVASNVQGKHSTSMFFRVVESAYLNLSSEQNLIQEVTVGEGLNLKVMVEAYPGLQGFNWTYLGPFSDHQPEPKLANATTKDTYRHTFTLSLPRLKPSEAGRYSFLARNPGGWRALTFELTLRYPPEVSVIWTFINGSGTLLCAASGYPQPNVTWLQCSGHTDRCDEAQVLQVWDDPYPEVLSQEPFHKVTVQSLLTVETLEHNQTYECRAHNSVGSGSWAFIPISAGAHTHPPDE
The label Yes is reserved for Kd strictly under 4 pM; No covers values equal to or above it.

# example entries with known answers
INSERT INTO results (binder, answer_label) VALUES
  ('969gH2gL1 (antibody, human IgG4 S228P, kappa, name in Kabat numbering, V domains shown, Humanised IgG4 (S241P)/kappa; positions are Kabat; also called Ab969.g6) VH: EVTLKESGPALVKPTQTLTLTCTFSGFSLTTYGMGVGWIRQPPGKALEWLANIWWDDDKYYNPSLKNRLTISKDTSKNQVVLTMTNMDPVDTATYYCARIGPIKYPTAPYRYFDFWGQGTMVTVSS VL: DIQMTQSPSSLSASVGDRVTITCLASEDIYDNLAWYQKKPGKAPKLLIYYASSLQDGVPSRFSGSGSGTDYTLTISSLQPEDFATYFCLQDSEYPWTFGGGTKVEIKR', 'Yes'),
  ('969gH2gL6 (antibody, human IgG4 S228P, kappa, name in Kabat numbering, V domains shown, Humanised IgG4 (S241P)/kappa; positions are Kabat; also called Ab969.g9) VH: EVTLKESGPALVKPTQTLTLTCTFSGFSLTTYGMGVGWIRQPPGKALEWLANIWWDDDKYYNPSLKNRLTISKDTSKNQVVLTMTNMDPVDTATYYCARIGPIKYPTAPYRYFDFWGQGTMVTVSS VL: DIQMTQSPSSLSASVGDRVTITCLASEDIYDNLAWYQKKPGKAPKLLIYYASSLQDGVPSRFSGSGSGTDFTLTISSLQPEDFATYYCLQDSEYPWTFGGGTKVEIKR', 'No'),
  ('969gH1gL4 (antibody, human IgG4 S228P, kappa, name in Kabat numbering, V domains shown, Humanised IgG4 (S241P)/kappa; positions are Kabat) VH: EVTLKESGPALVKPTQTLTLTCTFSGFSLTTYGMGVGWIRQPPGKALEWLANIWWDDDKYYNPSLKNRLTISKDTSKNQAVLTMTNMDPVDTATYYCARIGPIKYPTAPYRYFDFWGQGTMVTVSS VL: DIQMTQSPSSLSASVGDRVTITCLASEDIYDNLAWYQKKPGKAPKLLIYYASSLQDGVPSRFSGSGSGTDYTLTISSLQPEDFATYYCLQDSEYPWTFGGGTKVEIKR', 'Yes');

Consider the binder 969gH1gL2 (antibody, human IgG4 S228P, kappa, name in Kabat numbering, V domains shown, Humanised IgG4 (S241P)/kappa; positions are Kabat) VH: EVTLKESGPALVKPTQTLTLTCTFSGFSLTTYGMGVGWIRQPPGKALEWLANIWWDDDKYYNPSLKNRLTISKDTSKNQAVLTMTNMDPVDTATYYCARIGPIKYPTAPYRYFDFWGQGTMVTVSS VL: DIQMTQSPSSLSASVGDRVTITCLASEDIYDNLAWYQQKPGKAPKLLIYYASSLQDGVPSRFSGSGSGTDYTLTISSLQPEDFATYFCLQDSEYPWTFGGGTKVEIKR . Is its Kd strictly less than 4 pM? Yes

Criterion: Kd strictly below 4 pM. Is it met by 969gH2gL2 (antibody, human IgG4 S228P, kappa, name in Kabat numbering, V domains shown, Humanised IgG4 (S241P)/kappa; positions are Kabat) VH: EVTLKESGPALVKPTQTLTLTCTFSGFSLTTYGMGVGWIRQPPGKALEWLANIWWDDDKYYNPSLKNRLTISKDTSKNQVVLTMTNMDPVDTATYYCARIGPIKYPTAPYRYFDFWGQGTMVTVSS VL: DIQMTQSPSSLSASVGDRVTITCLASEDIYDNLAWYQQKPGKAPKLLIYYASSLQDGVPSRFSGSGSGTDYTLTISSLQPEDFATYFCLQDSEYPWTFGGGTKVEIKR ? Yes

Kd under 4 pM? Item: 969gH1gL1 (antibody, human IgG4 S228P, kappa, name in Kabat numbering, V domains shown, Humanised IgG4 (S241P)/kappa; positions are Kabat; also called Ab969.g1) VH: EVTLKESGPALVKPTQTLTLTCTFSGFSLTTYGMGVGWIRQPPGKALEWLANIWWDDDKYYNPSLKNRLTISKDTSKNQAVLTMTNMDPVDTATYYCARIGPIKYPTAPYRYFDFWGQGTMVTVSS VL: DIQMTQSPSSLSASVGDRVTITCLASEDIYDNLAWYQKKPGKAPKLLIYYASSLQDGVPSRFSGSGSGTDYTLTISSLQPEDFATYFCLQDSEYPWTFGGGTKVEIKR Yes

Is Kd of 969gH2gL3 (antibody, human IgG4 S228P, kappa, name in Kabat numbering, V domains shown, Humanised IgG4 (S241P)/kappa; positions are Kabat) VH: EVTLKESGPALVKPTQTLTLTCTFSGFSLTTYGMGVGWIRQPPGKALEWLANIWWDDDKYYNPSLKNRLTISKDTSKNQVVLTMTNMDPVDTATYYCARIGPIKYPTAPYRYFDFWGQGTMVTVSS VL: DIQMTQSPSSLSASVGDRVTITCLASEDIYDNLAWYQKKPGKAPKLLIYYASSLQDGVPSRFSGSGSGTDFTLTISSLQPEDFATYFCLQDSEYPWTFGGGTKVEIKR strictly below 4 pM? Yes

Is the reported Kd for 969gH2gL5 (antibody, human IgG4 S228P, kappa, name in Kabat numbering, V domains shown, Humanised IgG4 (S241P)/kappa; positions are Kabat) VH: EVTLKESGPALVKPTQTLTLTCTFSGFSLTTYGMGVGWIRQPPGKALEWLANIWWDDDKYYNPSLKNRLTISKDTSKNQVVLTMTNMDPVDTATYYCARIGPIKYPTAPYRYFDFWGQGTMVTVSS VL: DIQMTQSPSSLSASVGDRVTITCLASEDIYDNLAWYQQKPGKAPKLLIYYASSLQDGVPSRFSGSGSGTDFTLTISSLQPEDFATYFCLQDSEYPWTFGGGTKVEIKR strictly below 4 pM? No

Record chimeric antibody 969 (rat variable regions, human gamma-4 heavy chain constant region and human kappa chain constant region) (antibody, human IgG4, V domains shown, Alexa-488 label in the cell-based affinity assay; not carried by the letters., Full-length human IgG4 (S241P)/kappa chimeric; also called Ab969) VH: QVTLKESGPGILQPSQTLSLTCTFSGFSLTTYGMGVGWIRQPSGKGLEWLANIWWDDDKYYNPSLKNRLTISKDTSNNQAFLKLTNVHTSDSATYYCARIGPIKYPTAPYRYFDFWGPGTMVTVSS VL: DIQMTQSPASLSASLGETVSIECLASEDIYDNLAWYQKKPGKSPHLLIYYASSLQDGVPSRFSGSGSGTQYSLKINSLESEDAATYFCLQDSEYPWTFGGGTKLELKR : is its Kd strictly below 4 pM? Yes
